- Test system: HL-60
- Test name: In vitro induction of cell differentiation in HL-60 cells relative to 1,25(OH)2D3 (100)
- Assay type: functional, Homo sapiens
In this section we review reported Relative activity values for a set of molecules.
Attribute measured: Relative activity

C=C1/C(=C\C=C2/CCC[C@]3(C)[C@@H]([C@@H](C)[C@H](C)CCC(C)(C)O)CC[C@@H]23)C[C@@H](O)C[C@@H]1O; 11900
C[C@@H](CCCC(C)(C)O)[C@H](C)[C@@]1(C)CCC/C(=C\C=C2C[C@@H](O)C[C@H](O)C2)C1; 70
C[C@H](CCCC(C)(C)O)[C@H](C)[C@@]1(C)CCC/C(=C\C=C2C[C@@H](O)C[C@H](O)C2)C1; 75
C[C@H](CCCC(C)(C)O)[C@H]1CC[C@H]2/C(=C/C=C3C[C@@H](O)C[C@H](O)C3)CCC[C@]12C; 90

###

- Test system: MCF7
- Test name: Antiproliferative activity on MCF-7 cells relative to 1,25(OH)2D3 (100)
- Format: functional, Homo sapiens
Attribute measured: Relative activity

C[C@H](CCCC(C)(C)O)[C@@H](C)[C@@]1(C)CCC/C(=C\C=C2C[C@@H](O)C[C@H](O)C2)C1; 2000
C[C@@H](CCCC(C)(C)O)[C@H](C)[C@@]1(C)CCC/C(=C\C=C2C[C@@H](O)C[C@H](O)C2)C1; 90
C[C@H](CCCC(C)(C)O)[C@H](C)[C@@]1(C)CCC/C(=C\C=C2C[C@@H](O)C[C@H](O)C2)C1; 75
C[C@H]([C@@H](C)CCCC(C)(C)O)[C@@]1(C)CCC/C(=C\C=C2C[C@@H](O)C[C@H](O)C2)C1; 40

###

- System name: Vitamin D-binding protein (Rattus norvegicus) (UniProt P04276)
- Sequence (P04276 whole entry): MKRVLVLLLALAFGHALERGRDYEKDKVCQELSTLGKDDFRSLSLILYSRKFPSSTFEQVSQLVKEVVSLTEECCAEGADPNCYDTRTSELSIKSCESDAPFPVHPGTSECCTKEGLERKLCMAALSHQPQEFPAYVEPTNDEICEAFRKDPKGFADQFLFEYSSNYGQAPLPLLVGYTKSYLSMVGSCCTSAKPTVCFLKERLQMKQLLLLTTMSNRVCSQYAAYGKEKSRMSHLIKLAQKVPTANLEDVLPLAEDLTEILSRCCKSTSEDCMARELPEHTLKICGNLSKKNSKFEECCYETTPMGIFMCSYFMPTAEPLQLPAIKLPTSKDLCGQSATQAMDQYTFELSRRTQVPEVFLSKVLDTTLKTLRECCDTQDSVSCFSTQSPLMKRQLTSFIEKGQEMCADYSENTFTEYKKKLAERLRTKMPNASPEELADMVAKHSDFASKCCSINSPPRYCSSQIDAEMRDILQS
- Test name: Binding affinity for rat vitamin D binding protein (DBP) relative to 1,25(OH)2D3 (100)
Attribute measured: Relative binding affinity

C=C1/C(=C\C=C2/CCC[C@]3(C)[C@@H]([C@H](C)[C@@H](C)CCC(C)(C)O)CC[C@@H]23)C[C@@H](O)C[C@@H]1O; 67
C=C1/C(=C\C=C2/CCC[C@]3(C)[C@@H]([C@@H](C)[C@H](C)CCC(C)(C)O)CC[C@@H]23)C[C@@H](O)C[C@@H]1O; 0.25
C=C1/C(=C\C=C2/CCC[C@]3(C)[C@@H]([C@@H](C)[C@@H](C)CCC(C)(C)O)CC[C@@H]23)C[C@@H](O)C[C@@H]1O; 0.25
C=C1/C(=C\C=C2/CCC[C@]3(C)[C@@H]([C@H](C)[C@H](C)CCC(C)(C)O)CC[C@@H]23)C[C@@H](O)C[C@@H]1O; 0.45

###

- System name: Vitamin D3 receptor (Sus scrofa) (UniProt A3RGC1)
- Sequence (whole entry): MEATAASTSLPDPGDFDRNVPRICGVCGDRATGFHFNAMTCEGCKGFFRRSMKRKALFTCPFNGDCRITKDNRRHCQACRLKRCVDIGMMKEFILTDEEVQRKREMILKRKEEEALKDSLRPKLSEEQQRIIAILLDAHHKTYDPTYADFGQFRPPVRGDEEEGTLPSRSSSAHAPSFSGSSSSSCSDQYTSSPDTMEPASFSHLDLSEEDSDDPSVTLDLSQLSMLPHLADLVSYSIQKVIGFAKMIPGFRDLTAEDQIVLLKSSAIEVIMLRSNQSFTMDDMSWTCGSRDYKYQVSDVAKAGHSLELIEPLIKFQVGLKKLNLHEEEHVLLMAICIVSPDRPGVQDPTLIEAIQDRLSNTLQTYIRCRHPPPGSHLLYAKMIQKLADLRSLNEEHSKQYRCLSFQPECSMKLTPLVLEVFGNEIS
- Test name: Binding affinity for porcine intestinal Vitamin D3 receptor (VDR) relative to 1,25(OH)2D3 (100)
The label is yes (1) for Relative binding affinity below 9 and no (0) for Relative binding affinity equal to or exceeding 9.

C=C1/C(=C\C=C2/CCC[C@]3(C)[C@@H]([C@@H](C)[C@@H](C)CCC(C)(C)O)CC[C@@H]23)C[C@@H](O)C[C@@H]1O; yes (1)
C[C@H](CCCC(C)(C)O)[C@@H](C)[C@@]1(C)CCC/C(=C\C=C2C[C@@H](O)C[C@H](O)C2)C1; no (0)
C=C1/C(=C\C=C2/CCC[C@]3(C)[C@@H]([C@@H](C)[C@H](C)CCC(C)(C)O)CC[C@@H]23)C[C@@H](O)C[C@@H]1O; no (0)
C[C@H]([C@@H](C)CCCC(C)(C)O)[C@@]1(C)CCC/C(=C\C=C2C[C@@H](O)C[C@H](O)C2)C1; no (0)
